system: HEK-293T; assay: Multiplex assay against HEK293T; type: toxicity, cell-based; settings: human, 24 h, 1 µM, compound concentration 1 uM, replicate 1
property.measured: Population Membrane Permeable-Phenotype (%)
Only the number, expressed in %, is required.

Past entries and their recorded results:
molecule	system.under.test	meas.value
CCCOc1ccc2[nH]cc(C3=CCNCC3)c2n1.Cl	HEK-293T	0
COC[C@@H](c1ccc(C(F)(F)F)cc1)N1CCN(C2(C)CCN(C(=O)c3c(C)ncnc3C)CC2)C[C@@H]1C.O=C(O)/C=C\C(=O)O [VICRIVIROC MALEATE]	HEK-293T	0
CN[C@@H](C)C(=O)N[C@H](C(=O)N1CCC[C@H]1C(=O)Nc1snnc1-c1ccccc1)C1CCCCC1 [GDC-0152]	HEK-293T	1
COc1cccc2c1c(NS(=O)(=O)c1ccc(Cl)s1)nn2Cc1cccc(CNC(=O)C(C)(C)O)c1	HEK-293T	0
Cc1onc(-c2ccccc2Cl)c1C(=O)N(C)c1ccc(Cl)cc1	HEK-293T	1

**Query** What value of Population Membrane Permeable-Phenotype (%) has been reported for the following molecule? Cl.N=C(N)NC(=O)Cc1c(Cl)cccc1Cl [GUANFACINE HYDROCHLORIDE]
**Result** 0

**Query** What value of Population Membrane Permeable-Phenotype (%) has been reported for the following molecule? Cc1noc(-c2ccc(-c3ccc(CC(=O)O)cc3)cc2)c1NC(=O)O[C@H](C)c1ccccc1Cl
**Result** 0

**Query** What value of Population Membrane Permeable-Phenotype (%) has been reported for the following molecule? CCCCCC(O)/C=C/[C@H]1C(=O)CC(O)C1C/C=C\CCCC(=O)O (stereo not given in full)
**Result** 1

**Query** What value of Population Membrane Permeable-Phenotype (%) has been reported for the following molecule? CC(C)(C)c1cc(NC(=O)Nc2ccc(-c3cn4c(n3)sc3cc(OCCN5CCOCC5)ccc34)cc2)no1 [QUIZARTINIB]
**Result** 0

**Query** What value of Population Membrane Permeable-Phenotype (%) has been reported for the following molecule? Cc1cccc(NC(=O)CN2CCC(c3ccccn3)CC2)c1.Cl.Cl
**Result** 0

**Query** What value of Population Membrane Permeable-Phenotype (%) has been reported for the following molecule? C[C@H](N)COC(=O)[C@@H](CCCCN)NC(=O)Cc1c(-c2ccc3ccccc3c2)[nH]c2c1ccc1ccccc12
**Result** 0

**Query** What value of Population Membrane Permeable-Phenotype (%) has been reported for the following molecule? NCCc1cn(S(=O)(=O)c2c(Cl)nc3sccn23)c2ccccc12.O=C(O)C(=O)O
**Result** 1

**Query** What value of Population Membrane Permeable-Phenotype (%) has been reported for the following molecule? CCCCC(=O)N(Cc1ccc(-c2ccccc2-c2nnn[nH]2)cc1)[C@H](C(=O)O)C(C)C
**Result** 0

**Query** What value of Population Membrane Permeable-Phenotype (%) has been reported for the following molecule? Cc1cnc(-c2cc(N3CCN(C(=O)CCS(C)(=O)=O)CC3)ncc2Cl)c(C)c1
**Result** 1

**Query** What value of Population Membrane Permeable-Phenotype (%) has been reported for the following molecule? CC(=O)Nc1cccc2c1c(Sc1ccc(Cl)cc1)c(C)n2CC(=O)O [AZD1981]
**Result** 0

---

system: HEK-293T; assay: Multiplex assay against HEK293T; assay type: toxicity, cell-based; conditions: human, 48 h, 1 µM, compound concentration 1 uM, replicate 2
Response field label: string, one of Y (Population Healthy Nuclei (%) strictly below 80%) or N.

# example entries with known answers
compound	classification
CCCCC1=NC2(CCCC2)C(=O)N1Cc1ccc(-c2ccccc2-c2nnn[nH]2)cc1 [IRBESARTAN]	N
CC(C)c1noc(N2CCC(COc3ccc(-c4ccc(S(C)(=O)=O)cc4)nc3)CC2)n1 [GSK-1292263]	N
Cc1cccc(NC(=O)CN2CCC(c3ccccn3)CC2)c1.Cl.Cl	N
Cc1sc2c(c1C)C(c1ccc(Cl)cc1)=N[C@@H](CC(=O)NCCCCCCCCNC(=O)COc1cccc3c1C(=O)N(C1CCC(=O)NC1=O)C3=O)c1nnc(C)n1-2 (stereo partly drawn)	Y
Cc1noc(-c2ccc(-c3ccc(CC(=O)O)cc3)cc2)c1NC(=O)O[C@H](C)c1ccccc1Cl	Y

Turning now to a further compound:
**Query** Is Population Healthy Nuclei (%) of CC(C)COc1ccc(CNC(=O)N(Cc2ccc(F)cc2)C2CCN(C)CC2)cc1 [PIMAVANSERIN] strictly below 80%?
**Result** N
